Attribution: patent US20240336683A1

Assignment: determine reported EC50 for the given binders.
- measuredTarget: T1, human Siglec 15-HIS tagged recombinant protein (human, UniProt Q6ZMC9 20-263)
- T1 construct: Recombinant soluble protein; also called rhSiglec15 His; human Siglec15-HIS tagged protein; not shown: HIS tag
- T1 sequence (looked up): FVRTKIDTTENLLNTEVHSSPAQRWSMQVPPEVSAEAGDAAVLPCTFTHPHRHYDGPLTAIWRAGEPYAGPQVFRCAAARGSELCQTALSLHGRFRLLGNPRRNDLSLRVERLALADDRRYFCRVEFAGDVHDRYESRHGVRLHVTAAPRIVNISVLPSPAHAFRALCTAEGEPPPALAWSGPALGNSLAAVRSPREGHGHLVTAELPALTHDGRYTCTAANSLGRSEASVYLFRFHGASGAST
- experiment: ELISA; His-tagged Siglec15 coated, IgG titrated, anti-hFc HRP
Numbers only, in nM.

Here's what some known entries look like.
binder	EC50, nM
2019EP47-A02 IgG (antibody, V domains shown, IgG form expressed in ExpiHEK293-F cells; detected with anti-hFc) VH: EVQLVQSGGGVVQPGRSLRLSCAASGFTFSSYAMHWVRQAPGKGLEWVAVISYDGSNKYYADSVKGRFTISRDNSKNTLYLQMNSLRAEDTAVYYCARSRYSSSLRRYYGMDVWGQGTTVTVSS VL: AIQLTQSPSSLSASVGDRVTITCQATHDIANYLNWYQQKPGKAPKLLIYAASNLETGVPSRFSGSGSGTDFTFAISSLQPEDIAVYYCQQYDNLPLTFGGGTKVEIK	0.0289
2019EP47-A10 IgG (antibody, V domains shown, IgG form expressed in ExpiHEK293-F cells; detected with anti-hFc) VH: QMQLVQSGGGVVQPGRSLRLSCAASGFTFSSYGMHWVRQAPGKGLEWVAVISYDGSNKYYADSVKDRFTISRDNSKNTLYLQMNSLRAEDTAVYYCAKDIVGDSGSYPIYYYYGMDVWGQGTTVTVSS VL: SQSALTQPHSVSESPGKTVTISCTRSSGSIASNYVQWYQQRPGSAPSTVIYEDNQRPSGVPDRFSGSVDISSNSASLTISGLQTEDEADYYCQSYDNDNMVFGGGTKLTVL	0.119
2020EP032-B03 IgG (antibody, V domains shown, IgG form expressed in ExpiHEK293-F cells; detected with anti-hFc; also called 2020EP32-B03) VH: QVQLQQWGAGLLKPSETLSLTCAVYGGSFSGYYWSWIRQPPGKGLEWIGEINHSGSTNYNPSLKSRVTISVDTSKNQFSLKLSSVTAADTAVYYCARGPLRKYYDFWSGSRNYYYYGMDVWGQGTTVTVSS VL: QPVLTQDPAVSVALGQTVRITCQGDSLRSNYASWYQLKPGQAPVLVIYDKNNRPSGIPDRFSGSNSGNTASLTIAGAQAEDEADYYCTSRDSSGTVFGGGTKLTVL	0.527

-- ask Item under review: 2020EP032-H11 IgG (antibody, V domains shown, IgG form expressed in ExpiHEK293-F cells; detected with anti-hFc; also called 2020EP32-H11; H11 mAb) VH: EVQLVESGGGLVKPGGSLRLSCAASGFTFSSYSMNWVRQAPGKGLEWVSSISSSSSYIYYADSVKGRFTISRDNAKNSLYLQMNSLRAEDTAVYYCARDYRGYSGQNYYGMDVWGQGTTVTVSS VL: QSALTQPPSVSAAPRQKVTISCSGSSSNIGNNDVSWYQQLPGTVPKLLIYDNNKRPSGIPDRFSGSKSGTSASLGITGLQTGDEADYYCGVWDSSLSGYVFGTGTKVTVL . Reported EC50?
-- reply 0.0228
